# experimental.target: UniProt:P51686
# Sequence (P51686 whole entry): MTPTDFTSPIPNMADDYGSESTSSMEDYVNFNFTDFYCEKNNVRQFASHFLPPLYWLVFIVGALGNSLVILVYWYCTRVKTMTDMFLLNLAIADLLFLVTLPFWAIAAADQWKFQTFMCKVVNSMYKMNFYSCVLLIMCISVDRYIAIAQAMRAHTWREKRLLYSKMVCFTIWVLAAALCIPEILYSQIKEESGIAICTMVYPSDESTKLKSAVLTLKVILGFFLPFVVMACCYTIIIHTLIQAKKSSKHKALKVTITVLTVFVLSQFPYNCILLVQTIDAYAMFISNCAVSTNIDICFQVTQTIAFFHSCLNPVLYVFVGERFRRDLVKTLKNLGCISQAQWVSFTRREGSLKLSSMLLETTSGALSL
# method.summary: FLIPR Assay: A calcium flux assay was used to determine the ability of the compounds to interfere with the binding between CCR9 and its chemokine ligand (TECK) in Chem1-hCCR9 overexpressing cells. hCCR9 overexpressing cells were seeded (25,000 cells/well) into black Poly-D-Lysine coated clear bottom 96-well plates (BD Biosciences, Cat #356640) and incubated overnight at 37° C./5% CO2 in a humidified incubator. Media was aspirated and cells washed twice with 100 μL assay buffer (1×HBSS, 20 mM HEPES) containing 2.5 mM Probenecid. A 0.3× Fluo-4 NW calcium dye was prepared in assay buffer containing 5 mM Probenecid and stored in the dark. Each well was loaded with 100 μL of 0.3× Fluo-4 NW calcium dye and incubated at 37° C./5% CO2 for 60 minutes and then at room temperature for 30 minutes. A half-log serially diluted concentration response curve was prepared at a 3× final assay concentration for each compound (10 μM-0.1 nM final assay concentration) and 50 μL of the compound then transferred to the cells (150 μL final volume) for 60 minutes prior to stimulation (30 minutes at 37° C./5% CO2 and 30 minutes at room temperature). TECK was diluted to 4× its EC80 in assay buffer (containing 0.1% [w/v] bovine serum albumin [BSA]) and 50 μL dispensed through the fluorometric imaging plate reader (FLIPR) instrument to stimulate the cells (200 μL final volume). The increase in intracellular calcium levels was measured with the FLIPR instrument.
quantity.name: Ki (µM)
Provide only the numeric value, understood in µM.

Data request: What does the record list as Ki for `CC(C)(C)c1ccc(S(=O)(=O)Nc2ccc(C#N)c3c2C(=O)N(Cc2ccc[n+]([O-])c2)C3=O)cc1` ?
Data returned: 0.084
